Tested on: Calf thymus DNA
ASSAY PROTOCOL: Binding affinity to calf thymus DNA assessed as increase in melting temperature at 1 uM by spectrophotometer analysis
Format: nucleic-acid assay
MEASUREMENT CONTEXT: Bos taurus
ENDPOINT: ΔTm (°C)

SMILES TEXT	ΔTm, °C
NCCn1nc2c3c(cccc31)C(=O)c1c(Cl)cccc1-2	2.7
CN(C)CC(=O)Nc1cc(C(=O)NCCn2nc3c4c(cccc42)C(=O)c2ccccc2-3)n(C)c1	1.6

(1) CN(C)CC(=O)Nc1cc(C(=O)Nc2cc(C(=O)NCCn3nc4c5c(cccc53)C(=O)c3ccccc3-4)n(C)c2)n(C)c1
(2) COc1cccc2c1C(=O)c1c(O)c3c(c(O)c1C2=O)C[C@@](O)(C(=O)CO)C[C@@H]3O[C@H]1C[C@H](N)[C@H](O)[C@H](C)O1
Compare 1 and 2 and name the one whose reported ΔTm is smaller. Give the label of your selection.
1
(1: 4.3 °C, 2: 8.4 °C)

(I) Cn1cc(NC(=O)c2cc(NC(=O)OC(C)(C)C)cn2C)cc1C(=O)NCCn1nc2c3c(cccc31)C(=O)c1c(Cl)cccc1-2
(II) NCCn1nc2c3c(cccc31)C(=O)c1ccccc1-2
Decide: I or II , by lowest recorded ΔTm. Output the label that corresponds to your choice.
I

(P) O=C1c2ccccc2-c2nn(CCO)c3cccc1c23
(Q) Cn1cc(NC(=O)c2cc(N)cn2C)cc1C(=O)NCCn1nc2c3c(cccc31)C(=O)c1ccccc1-2
(R) CN(C)CC(=O)Nc1cc(C(=O)Nc2cc(C(=O)NCCn3nc4c5c(cccc53)C(=O)c3c(Cl)cccc3-4)n(C)c2)n(C)c1
(S) O=C1c2c(Cl)cccc2-c2nn(CCO)c3cccc1c23
(T) CN(C)CC(=O)Nc1cc(C(=O)NCCn2nc3c4c(cccc42)C(=O)c2c(Cl)cccc2-3)n(C)c1
Could you please sort these 5 entries by ΔTm from high to low? Reply with the labels, ordered as the question asks.
Q, R, P, T, S
(Q: 2.7 °C, R: 1.7 °C, P: 0.9 °C, T: 0.6 °C, S: 0.3 °C)

---

TARGET OF ASSAY: DNA topoisomerase 1 (Homo sapiens)
ASSAY PROTOCOL: Inhibition of topoisomerase 1-mediated relaxation of supercoiled pBR322 DNA at 20 uM after 20 mins using ethidium bromide staining by electrophoresis relative to control
ENDPOINT: inhibition (%)

SMILES TEXT	ENDPOINT	VALUE OBSERVED
Cn1cc(N)cc1C(=O)NCCn1nc2c3c(cccc31)C(=O)c1ccccc1-2	inhibition	10
Cn1cc(NC(=O)OC(C)(C)C)cc1C(=O)NCCn1nc2c3c(cccc31)C(=O)c1c(Cl)cccc1-2	inhibition	47

(1) CN(C)CC(=O)Nc1cc(C(=O)NCCn2nc3c4c(cccc42)C(=O)c2c(Cl)cccc2-3)n(C)c1
(2) Cn1cc(NC(=O)c2cc(NC(=O)OC(C)(C)C)cn2C)cc1C(=O)NCCn1nc2c3c(cccc31)C(=O)c1c(Cl)cccc1-2
Parameter check: reported inhibition is higher for which label, 1 or 2 ? Give the chosen item's label as your response.
2
(2: 47%, 1: 21%)
